- Study target: T1, CD3 epsilon homodimer protein (UniProt P07766 23-126)
- T1 construct: also called CD3 (CD3 epsilon)
- T1 sequence (P07766 23-126): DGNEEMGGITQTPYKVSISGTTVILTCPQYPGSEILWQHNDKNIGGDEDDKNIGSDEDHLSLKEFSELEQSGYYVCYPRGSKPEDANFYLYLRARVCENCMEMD
- Procedure summary: SPR Biacore T200, CD3e homodimer on chip, vs unaltered GLS3000 antibody
Give ratio of amounts bound (Z=Y/X) for every item shown.

query: Which ratio of amounts bound (Z=Y/X) value belongs to GLS3000 V27cI (antibody, name in Kabat numbering, V domains shown, one-arm IgG as m2) VH: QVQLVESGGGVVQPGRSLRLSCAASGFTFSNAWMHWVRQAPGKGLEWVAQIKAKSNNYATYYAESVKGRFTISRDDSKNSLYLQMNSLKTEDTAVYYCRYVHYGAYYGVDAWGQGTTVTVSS VL: DIVMTQSPLSLPVTPGEPASISCRSSQSLIHSNRNTYLHWYQQKPGQAPRLLIYKVSNRFSGVPDRFSGSGSGTDFTLKISRVEAEDVGVYYCGQGTQVPYTFGQGTKLEIK ?
result: 0.96

query: Value lookup for ratio of amounts bound (Z=Y/X); key = GLS3000 T97P (antibody, name in Kabat numbering, V domains shown, one-arm IgG as m2) VH: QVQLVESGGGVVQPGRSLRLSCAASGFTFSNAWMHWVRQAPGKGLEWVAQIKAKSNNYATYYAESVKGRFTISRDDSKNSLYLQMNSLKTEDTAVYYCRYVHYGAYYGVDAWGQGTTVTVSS VL: DIVMTQSPLSLPVTPGEPASISCRSSQSLVHSNRNTYLHWYQQKPGQAPRLLIYKVSNRFSGVPDRFSGSGSGTDFTLKISRVEAEDVGVYYCGQGTQVPYPFGQGTKLEIK
result: 0.31
